assay: Distribution coefficient, log D by C-18 reversed phase method; assay type: physicochemical; conditions: octanol/water; read-out: Log D
Each entry below carries its reported chromatographic logD.
MEASURE NAME: chromatographic logD

[
  {
    "COMPOUND": "CC(=O)N(C)c1cccc(-c2ccnc3c(C(=O)c4ccc(F)cc4)cnn23)c1",
    "MEASURE NAME": "chromatographic logD",
    "MEAS VALUE": 2.34
  },
  {
    "COMPOUND": "CN(C(=O)c1ccc([N+](=O)[O-])cc1)c1cccc(-c2ccnc3c(C(=O)c4cccs4)cnn23)c1",
    "MEASURE NAME": "chromatographic logD",
    "MEAS VALUE": 2.51
  },
  {
    "COMPOUND": "CC(=O)N(C)c1cccc(-c2ccnc3c(C(=O)c4cccs4)cnn23)c1 [INDIPLON]",
    "MEASURE NAME": "chromatographic logD",
    "MEAS VALUE": 2.26
  },
  {
    "COMPOUND": "CC(=O)N(CCF)c1cccc(-c2ccnc3c(C(=O)c4cccs4)cnn23)c1",
    "MEASURE NAME": "chromatographic logD",
    "MEAS VALUE": 2.62
  },
  {
    "COMPOUND": "CC(=O)N(CCCCF)c1cccc(-c2ccnc3c(C(=O)c4cccs4)cnn23)c1",
    "MEASURE NAME": "chromatographic logD",
    "MEAS VALUE": 2.48
  },
  {
    "COMPOUND": "CN(CCF)c1cccc(-c2ccnc3c(C(=O)c4cccs4)cnn23)c1",
    "MEASURE NAME": "chromatographic logD",
    "MEAS VALUE": 2.66
  },
  {
    "COMPOUND": "CC(=O)N(CCCF)c1cccc(-c2ccnc3c(C(=O)c4cccs4)cnn23)c1",
    "MEASURE NAME": "chromatographic logD",
    "MEAS VALUE": 2.35
  },
  {
    "COMPOUND": "CN(C(=O)c1ccc(F)cc1)c1cccc(-c2ccnc3c(C(=O)c4cccs4)cnn23)c1",
    "MEASURE NAME": "chromatographic logD",
    "MEAS VALUE": 2.64
  },
  {
    "COMPOUND": "CC(C)C(=O)N(CCCF)c1cccc(-c2ccnc3c(C(=O)c4cccs4)cnn23)c1",
    "MEASURE NAME": "chromatographic logD",
    "MEAS VALUE": 2.55
  }
]

====

assay: Displacement of [3H]flunitrazepam from GABAA receptor in Sprague-Dawley rat cerebellar membrane; set-up: species or system Cerebellum
pIC50: −log10 of the molar value.
Reported pIC50 values are given for each entry in this list.

[
  {
    "STRUCTURE STRING": "CN(CCF)c1cccc(-c2ccnc3c(C(=O)c4cccs4)cnn23)c1",
    "pIC50": 7.75
  },
  {
    "STRUCTURE STRING": "CC(C)C(=O)N(CCCF)c1cccc(-c2ccnc3c(C(=O)c4cccs4)cnn23)c1",
    "pIC50": 7.42
  },
  {
    "STRUCTURE STRING": "CC(=O)N(CCCF)c1cccc(-c2ccnc3c(C(=O)c4cccs4)cnn23)c1",
    "pIC50": 8.56
  },
  {
    "STRUCTURE STRING": "CC(=O)N(CCCCF)c1cccc(-c2ccnc3c(C(=O)c4cccs4)cnn23)c1",
    "pIC50": 8.22
  },
  {
    "STRUCTURE STRING": "CN(C(=O)c1ccc(F)cc1)c1cccc(-c2ccnc3c(C(=O)c4cccs4)cnn23)c1",
    "pIC50": 7.85
  },
  {
    "STRUCTURE STRING": "CN(C(=O)c1ccc([N+](=O)[O-])cc1)c1cccc(-c2ccnc3c(C(=O)c4cccs4)cnn23)c1",
    "pIC50": 7.80
  },
  {
    "STRUCTURE STRING": "CC(=O)N(C)c1cccc(-c2ccnc3c(C(=O)c4cccs4)cnn23)c1",
    "pIC50": 8.48
  },
  {
    "STRUCTURE STRING": "CCC(=O)N(CCCF)c1cccc(-c2ccnc3c(C(=O)c4cccs4)cnn23)c1",
    "pIC50": 8.28
  },
  {
    "STRUCTURE STRING": "CC(=O)N(C)c1cccc(-c2ccnc3c(C(=O)c4ccc(F)cc4)cnn23)c1",
    "pIC50": 7.27
  },
  {
    "STRUCTURE STRING": "CC(=O)N(CCF)c1cccc(-c2ccnc3c(C(=O)c4cccs4)cnn23)c1",
    "pIC50": 8.24
  }
]

====

test: Distribution coefficient, log D by alkyl amide reversed phase method; assay type: physicochemical; settings: octanol/water; read-out: Log D

[
  {
    "STRUCTURE STRING": "CC(=O)N(CCCF)c1cccc(-c2ccnc3c(C(=O)c4cccs4)cnn23)c1",
    "chromatographic logD": 2.38
  },
  {
    "STRUCTURE STRING": "CC(C)C(=O)N(CCCF)c1cccc(-c2ccnc3c(C(=O)c4cccs4)cnn23)c1",
    "chromatographic logD": 2.68
  },
  {
    "STRUCTURE STRING": "CN(C(=O)c1ccc([N+](=O)[O-])cc1)c1cccc(-c2ccnc3c(C(=O)c4cccs4)cnn23)c1",
    "chromatographic logD": 2.64
  },
  {
    "STRUCTURE STRING": "CC(=O)N(C)c1cccc(-c2ccnc3c(C(=O)c4ccc(F)cc4)cnn23)c1",
    "chromatographic logD": 2.38
  },
  {
    "STRUCTURE STRING": "CC(=O)N(C)c1cccc(-c2ccnc3c(C(=O)c4cccs4)cnn23)c1",
    "chromatographic logD": 2.23
  },
  {
    "STRUCTURE STRING": "CN(CCF)c1cccc(-c2ccnc3c(C(=O)c4cccs4)cnn23)c1",
    "chromatographic logD": 2.69
  },
  {
    "STRUCTURE STRING": "CN(C(=O)c1ccc(F)cc1)c1cccc(-c2ccnc3c(C(=O)c4cccs4)cnn23)c1",
    "chromatographic logD": 2.63
  }
]
